# SYSTEM_TESTED: S. pyogenes SKKanGAS, kanamycin survival, BacTiterGlo, 6 h
# TEST_NAME: S. pyogenes SKKanGAS kanamycin growth inhibitors – SKKanGAS strain, luminescence, dose confirmation, streptokinase promoter inhibitor project, dose response (AID 1902);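 also: lower survival reflects blocked streptokinase promoter driving kanamycin resistance gene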
Active and inactive are the calls of the source.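 The calls were made as follows: active = EC50 no more than a set limit of log units above the highest dose; inactive = the rest.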
Respond using exactly one of the listed classes: active, inactive

Task: How was O=C(Nc1nnc(SCc2c(Cl)cccc2Cl)s1)C1CC(=O)N(c2ccc3c(c2)OCCO3)C1 (stereo not given) classified in this test?
Result: active

Task: Please state the recorded outcome for this compound: COc1ccc2cc(C(=O)C3CCCN(Cc4cccc(C)n4)C3)ccc2c1 (stereo not given)
Result: active

Task: Give the logged outcome of this assay for the following compound: Cc1nc(Nc2nc(-c3ccccc3)cc(=O)[nH]2)nc2ccccc12
Result: active

Task: GET /call?item= COc1ccc(C(=O)CC(=O)C(=O)Nc2ccccc2C(F)(F)F)cc1 returns the recorded outcome of this test.
Result: active

Task: What did this assay record as the result for CC(=O)c1ccc(N2CCC(c3cc(-c4ccc(Cl)cc4Cl)n[nH]3)CC2)c([N+](=O)[O-])c1 ?
Result: active

Task: Hi, do you know how Cc1cccc(NC(=O)NCc2ccc3c(c2)OCO3)c1 came out in this test?
Result: inactive

Task: What call does the record list for Nc1nc(CN2CCC(Cc3ccccc3)CC2)nc(Nc2ccccc2)n1 ?
Result: active

Task: Could you check what this test reported for CCOC(=O)c1sc2nccc(N(C)C)c2c1N=CNOCc1c(F)cccc1Cl ?
Result: active

Task: Please indicate how the test categorized Cc1cc(NC(=S)N(Cc2ccc(Cl)cc2)Cc2ccc(C(=O)O)cc2)ccc1Cl .
Result: active

Task: Dear all, I need the recorded test outcome for Cc1ccccc1/C=C1\Sc2ccc(C(=O)N3CCN(c4ccccn4)CC3)cc2N(C)C1=O , thank you.
Result: active

---

Field: EC50. Provide a value for each of the molecules that follow.
# SYSTEM_TESTED: S. pyogenes SKKanGAS, kanamycin survival, BacTiterGlo, 6 h
# TEST_NAME: S. pyogenes SKKanGAS kanamycin growth inhibitors – SKKanGAS strain, luminescence, dose confirmation, streptokinase promoter inhibitor project, dose response (AID 1902);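 also: lower survival reflects blocked streptokinase promoter driving kanamycin resistance gene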

So for NCCCn1c(C(=O)c2cc(Cl)c(N)c(Cl)c2)c2ccc([N+](=O)[O-])cc2[n+]1[O-] , the logged EC50 turned out to be 4.25 µM

Briefly, EC50 measured for COc1cc(/C=N/NC(=O)c2cc(-c3c(C)nn(-c4ccccc4)c3C)n[nH]2)ccc1O : 2.97 µM

Just so you know, measured EC50 for Cc1ccc2c(c1)=C(c1sc(N(C)c3ccc(O)cc3)nc1O)C(=O)N=2 came out at 6.72 µM

c1ccc2c(-c3c[nH]c4ccccc34)c3ccccc3nc2c1 has a reported EC50 of 10.9 µM

// recorded EC50 for CCCC(Oc1ccc(Br)cc1)c1nc2c3cc(OC)c(OC)cc3nc(=S)n2[nH]1 (stereo not given) : 0.145 µM

Cc1nc(N)sc1N=Nc1ccc(F)cc1 has a reported EC50 of 2.13 µM

Per the records, this molecule ( Cc1ccc(CN2C(=O)c3ccccc3NC2c2cc(Br)ccc2O)cc1 (stereo not given) ) has EC50 equal to 4.31 µM

// recorded EC50 for c1ccc(/N=C2\N=C(Nc3ccccn3)c3ccccc32)nc1 : 2.44 µM

Please fill in: EC50 reported for CC(C)(C)c1cc[n+](C2=C([O-])c3ccccc3C(=O)/C2=N\S(=O)(=O)c2ccccc2)cc1 = 3.2 µM

The recorded EC50 for Cn1c(Sc2ccccc2Cl)c(C=O)c2ccccc21 is 5.92 µM

---

# SYSTEM_TESTED: S. pyogenes SKKanGAS, kanamycin survival, BacTiterGlo, 6 h
# TEST_NAME: S. pyogenes SKKanGAS kanamycin growth inhibitors – SKKanGAS strain, luminescence, dose confirmation, streptokinase promoter inhibitor project, dose response (AID 1902);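 also: lower survival reflects blocked streptokinase promoter driving kanamycin resistance gene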
The source made the active and inactive calls.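 How the source made its calls: active means EC50 no more than a set limit of log units above the highest dose; inactive means the rest.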
READOUT_KIND: EC50

Per the record, Cc1ccc(Nc2nc3nonc3[nH]c2=O)cc1Cl has EC50 of 2.54 µM

Recorded result, O=C(O)CCCNc1cc(N2CCN(C(=O)c3ccco3)CC2)c2noc3c2c1C(=O)c1ccccc1-3 , EC50: 6.02 µM

Record summary for CCCCCCCCCCCCCCCC[N+](C)(C)C : reported EC50 = 3.02 µM

Looking up CC(C)(C)c1ccc(-c2noc(-c3ccc4c(c3)CCO4)n2)cc1 , I found its EC50 recorded as 7.95 µM

So, Oc1c(N=Nc2ccccn2)ccc2ccccc12 ? Its EC50 was 2.58 µM

The reported value for COc1ccc(C(=O)CSc2nc(-c3ccccn3)nc(C)c2Cl)cc1 in terms of EC50 is 1.4 µM

Value of EC50 reported for the molecule Oc1ccccc1-c1nc2c3ccccc3c3ccccc3c2[nH]1 is 2.43 µM

Given item COCC1CCCCN1C(=O)c1ccc2oc(CCCc3ccccc3)nc2c1 (stereo unspecified) , the value recorded as its EC50 is > 15 µM (inactive)

Form field EC50, entry Cc1cccc(N2CCN(C(=O)C34CC5CC(CC(C5)C3)C4)CC2)c1C : 5.65 µM

In plain terms, Oc1ccc(N=Nc2ccc3c(c2)OCCO3)c2ncccc12 has a documented EC50 of 0.419 µM

EC50 recorded for this molecule, CC(=O)N(C)c1ccc(OCC(O)Cn2c3ccc(Cl)cc3c3cc(Cl)ccc32)cc1 (stereo unspecified) , is 3.35 µM

---

# SYSTEM_TESTED: S. pyogenes SKKanGAS, kanamycin survival, BacTiterGlo, 6 h
# TEST_NAME: S. pyogenes SKKanGAS kanamycin growth inhibitors – SKKanGAS strain, luminescence, dose confirmation, streptokinase promoter inhibitor project, dose response (AID 1902);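 also: lower survival reflects blocked streptokinase promoter driving kanamycin resistance gene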
Calls of active or inactive are those of the source.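 Rule for the calls: active = EC50 no more than a set limit of log units above the highest dose; inactive = the rest.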
Lab note: assign the record to one of active, inactive

Task: For Cc1ccc(CN2CN(S(=O)(=O)c3cccs3)c3nc4ccccc4nc32)cc1 , what call appears in the results of this test?
Result: active

Task: Would you mind telling me which call this test gave Cc1cccc(NC(=O)c2nc[nH]c2C(=O)N[C@@H](Cc2ccccc2)C(=O)OC(C)(C)C)c1 ?
Result: active

Task: // param item: CC(C)C[C@H](NC(=O)c1[nH]cnc1C(=O)N[C@H](C)c1ccccc1)C(=O)OC(C)(C)C ; yields the recorded call
Result: active

Task: Can you look up the reported call for COc1cc(OC)c([C@H]2C=C(C)[C@H]3C[C@@H]2C3(C)C)c(OC)c1 for me?
Result: active

Task: Assay result, entry Cc1ccc(C(=O)NNC(=S)NC(=O)c2ccc(Cl)cc2)cc1 — outcome?
Result: active

Task: Please state the recorded outcome for this molecule: O=C(CSc1nc2c(cnn2-c2ccccc2)c(=O)[nH]1)N1N=C(c2cccs2)CC1c1ccc(F)cc1 (stereo unspecified)
Result: active

Task: Short answer needed: outcome of this test for COc1ccccc1C(=O)Nc1nnc(SCC(=O)NCC2CCCO2)s1 (stereo unspecified) ?
Result: inactive

Task: Given O=C(CCl)c1ccc(Cc2ncc(C(F)(F)F)cc2Cl)s1 , state the outcome it received in this test.
Result: active

Task: What is the recorded call for this molecule in the test? CCN1/C(=C/c2ccc3ccccc3[n+]2CC)C=Cc2ccccc21
Result: active

Task: So what was the verdict on COc1ccccc1N1CC(C(=O)Nc2nnc(SCC(=O)N3CCCC3)s2)CC1=O (stereo unspecified) in this test?
Result: inactive

Task: Each molecule tested received a call. Report the one for CCCCNC(=O)c1cn(CC(C)C)c(=O)c2c1c1ccccc1n2C .
Result: active

Task: Recorded test call requested for Cc1nnc(-c2ccccc2)c(=O)n1/N=C/c1c(O)ccc2ccccc12
Result: active

Task: Hey, what did the test say about CCc1ccc(-c2ccc3nnc(SCC(N)=O)n3n2)cc1 ?
Result: active

Task: I would be grateful if you could indicate the recorded call for Cc1cccc(NC(=O)c2nc[nH]c2C(=O)N[C@@H](CC(C)C)C(=O)OCc2ccccc2)c1 .
Result: active

Task: What classification did CCCOC(=O)c1ccc(Oc2c(-c3ccc(OCC)cc3O)n[nH]c2C)cc1 end up with in this test?
Result: active

Task: Which outcome was assigned to Cc1sc2cc3c(c(C(=O)c4ccccc4)[n+]2c1C)-c1cccc2cccc-3c12 in this test?
Result: active

Task: Hey, what did the test say about O=C(NNC(=O)c1ccccc1OCc1ccc(F)cc1)c1ccccc1O ?
Result: active

Task: Tell me the assay call for COc1ccc(C(=O)NC(=S)NNC(=O)c2ccccc2C)cc1 please.
Result: active

Task: Dear colleague, could you share the recorded outcome for COc1ccc(-c2nc(/C=C3\C(C)=Nc4ccccc43)c(O)o2)cc1 when you have a moment?
Result: active

Task: Per the assay record, what outcome was assigned to Oc1c(Br)cc(Br)cc1CNc1cccc2cccnc12 ?
Result: active

Task: Check the results log: what was the call for Clc1ccc(-c2ccc(/C=N/Nc3cc(N4CCOCC4)nc(N4CCOCC4)n3)o2)cc1 ?
Result: active
